Numbers sourced from PubChem BioAssay (NCI).

- testName: NCI Yeast Anticancer Drug Screen. Data for the cln2 rad14 strain (AID 165);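 note: 0% = growth equal to vehicle treated cultures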
- conditionDescription: S. cerevisiae cln2 rad14 strain, at 50.0 µM, hits give high values
Compounds without any hit were thinned out: in the full panel of roughly 79,000, 15% have a hit.
growth inhibition of 20% or higher: Criterion met. Under 20%: Criterion not met.

Task: I'd appreciate it if you could say whether COC(=O)C1=C(C)NC(C)=C(C(=O)OC)C1c1cc2ccccc2n2nnnc12 has growth inhibition at least equal to 20%.
Output: Criterion not met

Task: Please tell me: is the compound Cc1ccc(C(CCCl)OC(C)C)cc1 (stereo not given) at or over 20% in terms of growth inhibition?
Output: Criterion met

Task: Exam item: decide whether the reported growth inhibition for C(=Nc1ccc(SSc2ccc(N=Cc3ccc4c(c3)OCO4)cc2)cc1)c1ccc2c(c1)OCO2 is at least 20%.
Output: Criterion not met

###

- testName: NCI Yeast Anticancer Drug Screen. Data for the sgs1 mgt1 strain (AID 161);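 note: 0% = growth of cultures given vehicle only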
- conditionDescription: S. cerevisiae sgs1 mgt1 strain, at 50.0 µM, hits give high values
- Protocol: Growth inhibition of yeast strains with defined genetic alterations is measured as a screen for potential anti-cancer activity. Selected strains with alterations in DNA damage repair or cell cycle control were exposed to compounds and growth inhibition was measured relative to vehicle treated controls. The strain used in this assay is sgs1 mgt1
The panel holds about 79,000 compounds, 15% with a hit somewhere; the sample as a whole holds those more often.
Kind request: treat 10% as inclusive, so growth inhibition at 10% or higher is 1.0, anything lower is 0.0.

Study these solved cases before continuing.
- compound: "CCOC(=O)c1cc(O)cc(=O)n1C1OC(COC(=O)c2ccccc2)C(OC(=O)c2ccccc2)C1OC(=O)c1ccccc1 (configuration not stated)"
  className: 1.0
- compound: "CC(=O)Oc1ccc2ccccc2c1CS(=O)(=O)O"
  className: 1.0
- compound: "CC1SCC(C)(C)NC1=O (configuration not stated)"
  className: 0.0
- compound: "CCN(CC)CCCNc1ccnc2c(N)cccc12"
  className: 0.0

Task: In plain terms: is recorded growth inhibition at least 10% for CC(C)=CCc1c(C)c(O)c(C)c(C)c1O ?
Output: 0.0

Task: Item CCN(CC)C(=S)N1C(=O)C2C3CCC(O3)C2C1=O (configuration not stated) with growth inhibition of 10% or above?
Output: 1.0

Task: Decide: is the reported value of growth inhibition for COc1cc(C=O)ccc1OC(=O)Nc1cc(Cl)ccc1C equal to or greater than 10%?
Output: 1.0

Task: Evaluate CC(C)(CCl)c1ccccc1 : growth inhibition at minimum 10%?
Output: 0.0

###

Provide the reported growth inhibition of each item.
- testName: NCI Yeast Anticancer Drug Screen. Data for the bub3 strain (AID 167)
- conditionDescription: S. cerevisiae bub3 mutant strain, at 50.0 µM, hits give high values
This is part of a sample that, as a whole, favours compounds with a hit. Of some 79,000 tested, about 15% had one in any assay.
Numbers only, in %.

Could I get growth inhibition for every one of these entries?
1. C/C(=N\N=C(/C)c1cccc2ccccc12)c1cccc2ccccc12
2. COc1ccc(OC)c(NC(=O)C2=C(C)NC(C)=C(C(=O)Nc3cc(OC)ccc3OC)C2c2cccc([N+](=O)[O-])c2)c1
3. CN(C)CC1(Cc2ccccc2)CCC(Cc2ccccc2)C1=O (configuration not stated)
4. N#CC(CN1CCOCC1)[N+](=O)[O-] (configuration not stated)
5. COC(=O)CCNc1c(OC)ccc2ccccc12
6. N=c1nnc2ccc(Cl)cc2n1O

Output:
1. -17.7
2. 7.5
3. 45.6
4. 16.6
5. 28.4
6. -1.85

# batch: return growth inhibition for each of the 6 molecules below
1. CCNC(CC1CCCCC1)C(=O)O (configuration not stated)
2. N#Cc1c(-c2ccccc2)cc(-c2ccccc2)[nH]c1=O
3. CN(Cc1ccccc1)C(=O)NC1CCCCC1
4. Cc1cc(C)c(C#N)c(NN)n1
5. COc1cc2c(cc1O)[C@@H]1Cc3c(cc(OC)c(OC)c3Oc3cc4c(cc3OC)CCN(C)[C@@H]4Cc3ccc(O)cc3)[C@H](C2)N1C
6. C=CC(=NC(C)C)N(C)c1ccccc1

Output:
[13.2, 3.5, 3.4, -0.5, -10.4, 26.5]
